# system-name: D-lactate dehydrogenases LdhTi (Thermodesulfatator indicus, UniProt F8A9V0)
# Sequence (F8A9V0 entry or part of it): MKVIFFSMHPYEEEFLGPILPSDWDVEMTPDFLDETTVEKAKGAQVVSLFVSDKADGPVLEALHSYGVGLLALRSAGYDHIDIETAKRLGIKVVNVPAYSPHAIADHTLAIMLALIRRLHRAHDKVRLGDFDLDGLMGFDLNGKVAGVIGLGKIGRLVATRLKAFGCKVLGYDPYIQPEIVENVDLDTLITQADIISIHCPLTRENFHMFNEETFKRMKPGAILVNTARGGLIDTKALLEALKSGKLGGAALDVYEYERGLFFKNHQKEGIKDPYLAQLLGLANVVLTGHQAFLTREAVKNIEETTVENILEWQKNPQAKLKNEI
# protocol-notes: Enzymatic characteristic identification (substrate spectrum) of D-lactate dehydrogenase LdhTi, NADH/NAD at 340 nm
# Format: biochemical
# measurement-setup: 50 mM phosphate buffer pH 7.0, 0.2 mM NADH or NAD+, 37° C.
measured-attribute: whether LdhTi catalyzes the substrate (in words)

molecule	endpoint-value
C[C@H](O)C(=O)O [L-lactic Acid, L-lactic acid]	no activity
O=CC(=O)O [Glyoxylic Acid, glyoxylic acid]	can catalyze
CC(=O)C(=O)O [Pyruvic Acid, pyruvic acid]	can catalyze
C[C@@H](O)C(=O)O [D-lactic Acid, D-lactic acid]	can catalyze
O=C(O)C(O)CO (stereo not shown) [Glyceric Acid, glyceric acid]	no activity
O=C(O)C(=O)Cc1ccccc1 [Phenylpyruvic Acid, phenylpyruvic acid]	can catalyze
O=C(O)CC(=O)C(=O)O [Oxaloacetic Acid, oxaloacetic acid]	can catalyze
